assay: qHTS assay to identify aromatase inhibitors - cell viability counter screen (AID 743084); settings: MCF-7 aro ERE viability, CellTiter-Fluor, 24 h; series mostly up to 70.3 µM;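 also: cells stimulated with testosterone during compound exposure; nearly all actives have a fitted effect of over 55% in size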; also: potency is read from the fitted curve at half-maximal effect
Inconclusive results are not listed. Calls of active or inactive are those of the source. Calls follow the shape of the dose curve; as a rule, active = well fitted cell-killing curve with a large enough effect in the repeat runs; inconclusive = weak or mixed curves, or effect the other way; inactive = no such curve, though single readings can be large or run the other way.
MEASURED QUANTITY: Potency

{"columns": ["COMPOUND SMILES", "READOUT VALUE"],
 "data": [
  ["ClCc1ccc(Cl)cc1Cl", "inactive"],
  ["O=[N+]([O-])c1ccc(Oc2ccc(C(F)(F)F)cc2[N+](=O)[O-])cc1", "inactive"],
  ["O=C(CCl)Nc1ccccc1", "27.3 µM (active)"],
  ["Oc1ccc(C2(c3ccc(O)cc3)CCCCC2)cc1", "25.9 µM (active)"]
]}
